- Test system: HEK-293T
- Test method notes: Incucyte cell viability with HEK293T; note: unitless GR value; below 1 slowed growth and below 0 cell loss
- Format: toxicity, cell-based
- Run parameters: human, 24 h, 10 µM, compound concentration 10 uM, replicate number 2
Square brackets hold non-standard residues; d marks the D form. Peptide text beside a SMILES is read from it. Nle = CCCC[C@H](N)C(=O)O

Compound	Study target	Growth Rate
CC(C)c1cc(C(=O)N2Cc3ccc(CN4CCN(C)CC4)cc3C2)c(O)cc1O	HEK-293T	-0.15
NC(=O)[C@H]1CCCCc2c1[nH]c1ccc(Cl)cc21	HEK-293T	1
CCCC[C@@H](C=O)NC(=O)[C@H](CC(C)C)NC(=O)[C@H](CC(C)C)NC(C)=O (Ac-Leu-Leu-[Nle]-aldehyde)	HEK-293T	0.18
O=C(c1ccc2c(ccn2-c2ccc(F)cc2)c1)N1CC(N2CCN(C(=O)c3nccs3)CC2)C1	HEK-293T	0.97
